The measurements presented in this section are drawn from PubChem BioAssay (NCI).

- Tested on: SN12C renal
- procedure.details: NCI-60 one-dose screen, 48 h (100 = growth as untreated, 0 = no growth, -100 = all killed)
- cond: 10 µM unless noted
About 83,000 compounds went through this panel and 20% of them were active in at least one assay; those are over-represented in the sample as a whole.
growth listing for selected compounds.
experimental.endpoint: growth (%)

>>> recorded_value("CN1CCN(c2ccc(Nc3nc(NCCNS(=O)(=O)c4ccc5ccccc5c4)c4sccc4n3)cc2)CC1")
79.6
>>> recorded_value("Cc1ccc(NC(=O)/C=C/c2ccc(OCCCOc3ccc4c(C)cc(=O)oc4c3)cc2)cc1")
73.3
>>> recorded_value("Cc1ccc(/C=N/Nc2nc(Nc3ccccc3)nc(Nc3ccc(S(N)(=O)=O)cc3)n2)cc1")
82.5
>>> recorded_value("Brc1cc(-c2cc(-c3ccc4c(c3)OC=CO4)[nH]n2)cs1")
98.8
>>> recorded_value("O=C1/C(=C/c2cc(F)cc(F)c2)Cc2cc3c(cc21)OCO3")
45.7
>>> recorded_value("O=C1Nc2ccc(F)cc2/C1=C\\C(=O)c1ccc(NS(=O)(=O)c2ccccc2)cc1")
87.2
>>> recorded_value("O=C(CSc1nc2ccccc2c(=O)n1-c1ccc(S(=O)(=O)Nc2ccc(Cl)nn2)cc1)Nc1ccc(S(=O)(=O)Nc2ccc(Cl)nn2)cc1")
106
>>> recorded_value("C/C(=C(\\c1ccc(O)cc1)c1ccc(OCCN2CCCCCC2)cc1)c1ccc(Cl)cc1")
-84.7
>>> recorded_value("FC(F)(F)c1cc(Br)cc(-c2cc(-c3ccc4c(c3)OCCO4)[nH]n2)c1")
44.7
>>> recorded_value("CSc1ccc(/C(=N/N=C(N)N)c2ccc(Cl)cc2)cc1")
7.12
>>> recorded_value("O=C(CCl)Nc1ccc(NC(=O)c2cc(Cl)ccc2O)c(Cl)c1")
68.4
>>> recorded_value("CCC(=C(c1ccc(OCCN2CCCCCC2)cc1)c1ccc(OCCN2CCCCCC2)cc1)c1ccc(Cl)cc1")
48.3
>>> recorded_value("NC(=O)c1ncn2c(=O)n(CCF)nnc12")
85.5
>>> recorded_value("Clc1cccc(/C=N/Nc2nc(N/N=C/c3cccc(Cl)c3)nc(N3CCCCC3)n2)c1")
92.4
>>> recorded_value("CCOC(=O)c1cccc(NC2=C(Cl)C(=O)c3nc(C)ccc3C2=O)c1")
95.5
>>> recorded_value("Nc1ncc(-c2ccc3ncnc(NCc4ccccc4)c3c2)cn1")
29.5

====

- Tested on: SF-268 CNS
- procedure.details: NCI-60 one-dose screen, 48 h (100 = growth as untreated, 0 = no growth, -100 = all killed)
- cond: 10 µM unless noted
The panel holds about 83,000 compounds, 20% with a hit somewhere; the sample as a whole holds those more often.
experimental.endpoint: growth (%)

>>> recorded_value("COc1ccc(/C=N/NC(=O)CSc2nc(-c3cnccn3)cc(-c3cccs3)c2C#N)cc1OC")
70.5
>>> recorded_value("O=c1c2cc(-c3ccc(F)cc3F)ccc2n(O)c(=O)n1-c1cccc(C(F)(F)F)c1")
17.4
>>> recorded_value("CCCCCC[n+]1ccc(SCC(=O)n2ccc3ccccc32)c2ccccc21")
101
>>> recorded_value("NS(=O)(=O)c1ccc(CCn2c(-c3ccc(C(=O)O)cc3)nc(-c3ccccc3)c2-c2ccccc2)cc1")
93.8
